system: HL-60 acute promyelocytic leukemia cell line; assay: CD38 expression by flow cytometry on HL-60 cells; format: cell-based, human; conditions: HL-60 cells, 72 h treatment, anti-human CD38 FITC flow cytometry; read-out: concentration which triggered 50% of the maximum CD38 induction (EC50)
pEC50: −log10 of the molar value.

COMPOUND: C[C@H](CC#CC(C)(C)O)[C@H]1CC[C@@H]2/C(=C/C=C3C[C@@H](O)C[C@H](O)C3)CCC[C@@]21C [inecalcitol]
pEC50: 9.37

###

system: MM.1S multiple myeloma cell line; experiment: CD38 expression by flow cytometry on MM.1S cells; format: cell-based, human; details: MM1.S; MM.1s cells, 72 h treatment, anti-human CD38 FITC flow cytometry; read-out: concentration which triggered 50% of the maximum CD38 induction (EC50)
pEC50: −log10 of the molar value.

COMPOUND STRING: C[C@H](CC#CC(C)(C)O)[C@H]1CC[C@@H]2/C(=C/C=C3C[C@@H](O)C[C@H](O)C3)CCC[C@@]21C
TESTED SYSTEM: MM.1S multiple myeloma cell line
pEC50: 9.31
